// provenance: paper PMC12794062

ASSAY_NAME: In vitro microsomal metabolic stability, rat
Type: in vitro ADME
CONDITION_PARAMETERS: male, Sprague Dawley, rat liver microsomes, pH 7.4, read-out: CLint,app (r)
PROPERTY_NAME: CLint scaled at 1 µM (mL/min/kg)
Number in mL/min/kg, nothing else.

Supply recorded CLint scaled at 1 µM for Cc1cnc(N)c(/C=C/c2cncc(C(=O)Nc3ccc(Cl)cc3)c2)c1 here.
62

###

ASSAY_NAME: In vitro cytotoxicity, MTT assay
CONDITION_PARAMETERS: Chinese hamster, Chinese Hamster Ovarian (CHO) cells
PROPERTY_NAME: pIC50
Give only the number. pIC50 is defined as minus log10 of concentration in molar units.

Give the value of pIC50 reported for the following: Cc1cnc(N)c(/C=C/c2cncc(C(=O)Nc3ccc(Cl)cc3)c2)c1 [Compound 23]
4.68

###

System: P. falciparum K1
ASSAY_NAME: In vitro asexual blood stage antiplasmodium activity (pLDH assay), multidrug-resistant K1 strain
CONDITION_PARAMETERS: Plasmodium falciparum, K1, read-out: Pf IC50 ± SD K1, asexual blood stage; mean ± SD, n ≥ 2 independent experiments
PROPERTY_NAME: IC50

In [3]: df
Out[3]:
                         structure_notation  property_name  experimental_value
0  Cc1cnc(N)c(/C=C/c2cncc(C(=O)NCCc3ccc(Cl)cc3Cl)c2)c1           IC50              590 nM
1  Nc1cncc(/C=C/c2cncc(C(=O)NCCc3ccc(Cl)cc3Cl)c2)c1           IC50           > 6000 nM

Assign IC50 to the following record: Cc1cnc(N)c(/C=C/c2cccc(C(=O)NCCc3ccc(Cl)cc3Cl)c2)c1
1650 nM

Given the compound Cc1cnc(N)c(/C=C/c2cncc(C(=O)NCCc3ccccc3)c2)c1 , write its reported IC50.
< 1000 nM

Give the value of IC50 reported for the following: Cc1cnc(N)c(/C=C/c2cncc(C(=O)NCc3ccc(Cl)cc3Cl)c2)c1
250 nM

Give the measured IC50 for Nc1ncccc1/C=C/c1cncc(C(=O)NCCc2ccc(Cl)cc2Cl)c1
960 nM

Look up and state reported IC50 for Cc1cnc(N)c(/C=C/c2cncc(C(=O)NCCc3ccc(Cl)cc3)c2)c1
< 1000 nM

Supply IC50 value. Item: Cc1cnc(N)c(/C=C/c2cncc(C(=O)NCc3cc(Cl)cc(Cl)c3)c2)c1
460 nM
